Reported growth inhibition values for the following compounds.
- Assay Details: NCI Yeast Anticancer Drug Screen. Data for the rad50 strain (AID 155);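 also: 0% = growth of vehicle-only cultures of the same strain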
- Experimental Setup: S. cerevisiae rad50 strain growth inhibition; at 50.0 µM; stronger effect = higher value
- Procedure: Growth inhibition of yeast strains with defined genetic alterations is measured as a screen for potential anti-cancer activity. Selected strains with alterations in DNA damage repair or cell cycle control were exposed to compounds and growth inhibition was measured relative to vehicle treated controls. The strain used in this assay is rad50
About 79,000 compounds went through this panel and 15% of them were active in at least one assay; those are over-represented in the sample as a whole.
Field: numeric (%). Do not append units.

Query: Find the measured growth inhibition of `CC(=O)c1cc2c(cc1C(C)C)CC[C@H]1[C@](C)(C#N)CCC[C@]21C` and report it.
Response: 1
